system under test: T1, MtrA (UniProt F2R521 1-225)
T1 sequence: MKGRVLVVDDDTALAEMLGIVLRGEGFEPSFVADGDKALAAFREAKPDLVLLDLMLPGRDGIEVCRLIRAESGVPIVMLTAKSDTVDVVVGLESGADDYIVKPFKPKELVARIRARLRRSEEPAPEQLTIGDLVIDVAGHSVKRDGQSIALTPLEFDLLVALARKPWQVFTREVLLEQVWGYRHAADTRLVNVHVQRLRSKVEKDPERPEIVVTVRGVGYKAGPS
experiment summary: EMSA
reported metric: binding result

Query mtrA M3 (SVEN2756 M3) (dsDNA) DNA 1: TACGGTGCAGGCCGACCACGGGGGCCCACGGGGAGGCTATCCATACTTGGCATCAACAC DNA 2: GTGTTGATGCCAAGTATGGATAGCCTCCCCGTGGGCCCCCGTGGTCGGCCTGCACCGTA yields binding result of no binding

Memo: mtrA M1 (SVEN2756 M1) (dsDNA) DNA 1: TACGGTGCAGGCCGACCACGGGGGCCCACGGGGAGGCTATCCATGTCTGGCATCAACAC DNA 2: GTGTTGATGCCAGACATGGATAGCCTCCCCGTGGGCCCCCGTGGTCGGCCTGCACCGTA , reported binding result: no binding
